Reported normalized growth values for the following compounds.
methodSummary: chemical genetic growth profiling, strain panel (AID 1159580);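 note: tested at 20 µM; growth read once vehicle control cultures reached saturation at 30 °C; 1 = growth at the plate median or of vehicle wells; lower values mean less growth of the strain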
studyConditions: S. cerevisiae deletion strains, growth OD, locus YGL078C, strain dbp3, active compounds read low
The whole screen tested about 5,500 compounds, of which about 2,000 (36%) were called active. Not shown: some 18% with an inconclusive outcome. This is one part of the list.
Answer with a number only.

Use the examples below as a reference point.
{"columns": ["compound", "normalized growth"],
 "data": [
  ["Cc1c(N(C)C)c(=O)n(-c2ccccc2)n1C", 0.997],
  ["CC(C)N(C(=O)CCl)c1ccccc1", 1.03]
]}

Noted for COc1ccc2c(c1)[C@@]1(C)CCC(=O)C[C@H]1CC2 : its normalized growth reads 0.983

Noted for COc1c(CC=C(C)C)c2c(c3oc(=O)c(-c4ccc(O)cc4)c(O)c13)C=CC(C)(C)O2 : its normalized growth reads 1

Noted for c1ccc(CN(CC2=NCCN2)c2ccccc2)cc1 : its normalized growth reads 0.997

Noted for CC(C)[N+](C)(CCOC(=O)C1c2ccccc2Oc2ccccc21)C(C)C : its normalized growth reads 1.01

Noted for COC1C(O)C(O)C(O)[C@@H](O)C1O (some centres not stated) : its normalized growth reads 1.02

Noted for O=C(O)c1cc(=O)c2cc(Cl)ccc2[nH]1 : its normalized growth reads 1

* * *

methodSummary: chemical genetic growth profiling, strain panel (AID 1159580)
studyConditions: S. cerevisiae deletion strains, growth OD, locus YBR279W, strain paf1, active compounds read low
Among all 5,500 compounds or so, about 2,000 (36%) were called active. Not shown: some 18% with an inconclusive outcome. This is one part of the list.
# strict inequality: normalized growth < 1 yields yes, everything else yields no

The following compounds have reported results that may help.
{"columns": ["compound", "category"],
 "data": [
  ["CCCCCCCC/C=C/CCCCCCCCOP(=O)([O-])OCC[N+](C)(C)C", "yes"],
  ["CC(C)(C)CC(C)(C)c1ccc(OCCOCC[N+](C)(C)Cc2ccccc2)cc1", "yes"],
  ["CCCCCCCCCCCCCCCCOP(=O)([O-])OCC[N+](C)(C)C", "yes"]
]}

Is normalized growth of CC1(C)C2CC[C@]3(C)C(C(=O)C=C4[C@@H]5C[C@@](C)(C(=O)O)CC[C@]5(C)CC[C@]43C)[C@@]2(C)CC[C@@H]1O (stereo not given in full) strictly below 1? no

Is normalized growth of CC(C)(N=NC(C)(C)C(=N)N)C(=N)N strictly below 1? no

Is normalized growth of CCCCCCCCCCCCC[N+](C)(C)Cc1ccccc1 strictly below 1? yes

Is normalized growth of Cc1cc(C(C)(C)CC(C)(C)C)ccc1OCCOCC[N+](C)(C)Cc1ccccc1 strictly below 1? yes

Is normalized growth of COc1ccc(C[C@H]2NC[C@H](O)[C@H]2OC(C)=O)cc1 strictly below 1? yes

* * *

methodSummary: chemical genetic growth profiling, strain panel (AID 1159580)
studyConditions: S. cerevisiae deletion strains, growth OD, locus YGL086W, strain mad1, active compounds read low
About 2,000 (36%) of roughly 5,500 compounds were called active. Inconclusive results (about 18%) are left out. This is one part of the list.
Reported normalized growth values for the following compounds.
Answer with a number only.

Use the examples below as a reference point.
{"columns": ["compound", "normalized growth"],
 "data": [
  ["O=C(O)c1cc(=O)c2cc(Cl)ccc2[nH]1", 1.01],
  ["CC(C(=O)O)c1ccc2c(c1)[nH]c1ccc(Cl)cc12 (stereo not given)", 0.983],
  ["O=C1C[C@@H](c2ccccc2)Oc2cc(O)cc(O)c21", 1],
  ["COc1ccc2cc1Oc1ccc(cc1)C[C@H]1c3cc(c(OC)cc3CCN1C)Oc1c(OC)c(OC)cc3c1[C@H](C2)N(C)CC3", 0.983]
]}

Then this compound:
Noted for OCc1ccccc1O[C@@H]1O[C@H](CO)[C@@H](O)[C@H](O)[C@H]1O : its normalized growth reads 0.97

* * *

methodSummary: chemical genetic growth profiling, strain panel (AID 1159580);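 note: tested at 20 µM; growth read once vehicle control cultures reached saturation at 30 °C; 1 = growth at the plate median or of vehicle wells; lower values mean less growth of the strain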
studyConditions: S. cerevisiae deletion strains, growth OD, locus YLR221C, strain rsa3, active compounds read low
The campaign covered roughly 5,500 compounds. About 2,000 (36%) were called active. Another 18% or so got no clear call; they are omitted. The list shows a part of the results.
Reported normalized growth values for the following compounds.

Use the examples below as a reference point.
{"columns": ["compound", "metric", "experimentalResult"],
 "data": [
  ["COC(=O)C1=COC(OC2OC(CO)C(O)C(O)C2O)C2C(C)CC(=O)C12O (stereo not drawn)", "normalized growth", "1.03 (inactive)"],
  ["CO[C@H]1C[C@H](O[C@H]2[C@H](C)[C@@H](OC3O[C@H](C)C[C@H](N(C)C)[C@H]3O)[C@@H](C)C[C@]3(CO3)C(=O)[C@H](C)[C@@H](O)[C@@H](C)[C@@H](C)OC(=O)[C@@H]2C)O[C@@H](C)[C@@H]1O (stereo partly drawn)", "normalized growth", "1.03 (inactive)"],
  ["CN=C(NC#N)NCCSCc1nc(N=C(N)N)cs1", "normalized growth", "0.987 (inactive)"],
  ["CCc1ccc(CCOc2ccc(CC3SC(=O)NC3=O)cc2)nc1 (stereo not drawn)", "normalized growth", "1.01 (inactive)"],
  ["C1CCc2nnnn2CC1", "normalized growth", "1.01 (inactive)"]
]}

Noted for CCOC(=O)c1ncn2c1CN(C)C(=O)c1cc(F)ccc1-2 : its normalized growth reads 1.02 (inactive)

Noted for COc1cc2c(cc1OC)C(=O)C(CC1CCN(Cc3ccccc3)CC1)C2 (stereo not drawn) : its normalized growth reads 0.975 (inactive)

Noted for COc1ccc2c(c1)OC[C@@H](Cc1ccc(OC)c(OC)c1)[C@H]2O : its normalized growth reads 1.01 (inactive)

Noted for O=C(O)c1ccccc1OP(=O)(O)O : its normalized growth reads 0.995 (inactive)

Noted for C[CH2][Hg][S]c1ccccc1C(=O)O : its normalized growth reads 0.0597 (active)

Noted for O=C(/C=C/C=C/c1ccc2c(c1)OCO2)N1CCCCC1 : its normalized growth reads 0.9 (active)

Noted for COc1ccc(C(=O)c2ccccc2)c(O)c1 : its normalized growth reads 0.74 (active)

Noted for COc1ccc(C(=O)c2ccccc2O)c(O)c1 : its normalized growth reads 0.891 (active)

Noted for COc1ccc(-c2cc(=O)c3c(O)cc(OC)c(OC)c3o2)c(OC)c1 : its normalized growth reads 0.966 (inactive)

* * *

methodSummary: chemical genetic growth profiling, strain panel (AID 1159580);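 note: tested at 20 µM; growth read once vehicle control cultures reached saturation at 30 °C; 1 = growth at the plate median or of vehicle wells; lower values mean less growth of the strain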
studyConditions: S. cerevisiae deletion strains, growth OD, locus YLR027C, strain aat2, active compounds read low
The campaign covered roughly 5,500 compounds. About 2,000 (36%) were called active. Inconclusive results (about 18%) are left out. Some of the results follow.
metric: normalized growth
Answer with a number only.

Use the examples below as a reference point.
{"columns": ["inputSmiles", "normalized growth"],
 "data": [
  ["COc1cc(O)c(C(=O)c2ccccc2)cc1O", 1.01],
  ["COc1ccc2cc1Oc1ccc(cc1)C[C@H]1c3cc(c(OC)cc3CCN1C)Oc1c(OC)c(OC)cc3c1[C@H](C2)N(C)CC3", 1.01],
  ["COc1ccc2cc1Oc1ccc(cc1)C[C@H]1c3c(cc4c(c3Oc3cc5c(cc3OC)CCN(C)[C@@H]5C2)OCO4)CCN1C", 1],
  ["CC(=O)OCC(CCn1cnc2cnc(N)nc21)COC(C)=O", 0.97]
]}

Then this molecule:
Noted for O=c1ccc2ccccc2o1 : its normalized growth reads 0.993

* * *

methodSummary: chemical genetic growth profiling, strain panel (AID 1159580);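 note: tested at 20 µM; growth read once vehicle control cultures reached saturation at 30 °C; 1 = growth at the plate median or of vehicle wells; lower values mean less growth of the strain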
studyConditions: S. cerevisiae deletion strains, growth OD, locus YJL092W, strain hpr5, active compounds read low
The whole screen tested about 5,500 compounds, of which about 2,000 (36%) were called active. Roughly 18% stayed inconclusive and do not appear here. This is one part of the list.
metric: normalized growth

Use the examples below as a reference point.
{"columns": ["compound", "normalized growth"],
 "data": [
  ["COc1cccc2c1CCC1CC(=O)CCC21C (stereo unspecified)", "0.994 (inactive)"],
  ["COc1ccc2c(c1)[C@@]1(C)CCC(=O)C[C@H]1CC2", "0.948 (inactive)"],
  ["CC1(C)C2CC[C@]3(C)C(C(=O)C=C4[C@@H]5C[C@@](C)(C(=O)O)CC[C@]5(C)CC[C@]43C)[C@@]2(C)CC[C@@H]1OC(=O)CCC(=O)O (stereo partly specified)", "1 (inactive)"],
  ["CCC1(c2ccccc2)C(=O)NCNC1=O", "0.975 (inactive)"],
  ["CCC(C(=O)O)c1ccccc1 (stereo unspecified)", "0.979 (inactive)"],
  ["NC[C@@H]1O[C@H](O[C@@H]2[C@@H](CO)OC(O[C@@H]3[C@@H](O)[C@H](N)C[C@H](N)[C@H]3OC3O[C@H](CN)[C@@H](O)[C@H](O)[C@H]3N)[C@@H]2O)[C@H](N)[C@@H](O)[C@@H]1O (stereo partly specified)", "1.03 (inactive)"],
  ["CNC1(C)C2CCC(C2)C1(C)C (stereo unspecified)", "0.991 (inactive)"],
  ["CCC1(c2ccc(N)cc2)CCC(=O)NC1=O (stereo unspecified)", "0.952 (inactive)"],
  ["Cc1cccc(Nc2cc(Cl)nc(SCC(=O)O)n2)c1C", "0.983 (inactive)"],
  ["CC(C)(CO)C(O)C(=O)NCCCO (stereo unspecified)", "1.01 (inactive)"]
]}

Noted for Cc1c(N(C)C)c(=O)n(-c2ccccc2)n1C : its normalized growth reads 1 (inactive)

Noted for CC(=O)O[C@]1(C(C)=O)CCC2C3C=C(C)C4=CC(=O)CCC4(C)C3CCC21C (stereo partly specified) : its normalized growth reads 0.944 (inactive)

Noted for CCOC(=O)c1ncn2c1CN(C)C(=O)c1cc(F)ccc1-2 : its normalized growth reads 1.02 (inactive)

Noted for COc1ccc2cc1Oc1ccc(cc1)C[C@H]1c3c(cc4c(c3Oc3cc5c(cc3OC)CCN(C)[C@@H]5C2)OCO4)CCN1C : its normalized growth reads 0.988 (inactive)

Noted for CC(=O)O[C@]1(C(C)=O)CCC2C3C[C@H](C)C4=CC(=O)CC[C@]4(C)C3CC[C@@]21C (stereo partly specified) : its normalized growth reads 0.964 (inactive)

Noted for CN1CCCC(n2nc(Cc3ccc(Cl)cc3)c3ccccc3c2=O)CC1 (stereo unspecified) : its normalized growth reads 0.981 (inactive)
